Molecular target: Mannose-6-phosphate isomerase (Homo sapiens)
Assay: MPI inhibition at elevated mannose 6-phosphate – biochemical, fluorescence intensity, high mannose 6-phosphate, primary screen (AID 1220)
Conditions: recombinant PMI enzyme, coupled fluorescence intensity; at 20 µM; hits give high values
In all, about 190,000 compounds went through this assay and about 1,300 (0.68%) were called active. Many of the other results were omitted from the sample, so actives are more common in it than they were.
Listing: inhibition of selected molecules

[
  {
    "MOLECULE": "Cc1oc(C(C)(C)C)c(CN2CCOCC2)c1C(=O)O",
    "UNIT LABEL": "%",
    "inhibition": -2.9
  },
  {
    "MOLECULE": "C=CCn1c(O)c(C(CC)=NCCN2CCOCC2)c(=O)[nH]c1=O",
    "UNIT LABEL": "%",
    "inhibition": -15.4
  },
  {
    "MOLECULE": "CN(C)CCNC(=O)c1c(O)c2c([nH]c1=O)CCCC2",
    "UNIT LABEL": "%",
    "inhibition": 15.6
  },
  {
    "MOLECULE": "C=CCn1c(O)c(CN2CCCCC2)c(C)c(C#N)c1=O",
    "UNIT LABEL": "%",
    "inhibition": 70.2
  },
  {
    "MOLECULE": "Cc1ccc(Cl)cc1NC(=S)N(CCCN1CCOCC1)Cc1ccco1",
    "UNIT LABEL": "%",
    "inhibition": -6.2
  },
  {
    "MOLECULE": "CCCC(=O)c1cc(F)c(N2CCN(S(=O)(=O)c3ccccc3)CC2)cc1C",
    "UNIT LABEL": "%",
    "inhibition": 14.8
  },
  {
    "MOLECULE": "C=CCn1c(O)c(CN2CCOCC2)c(C)c(C#N)c1=O",
    "UNIT LABEL": "%",
    "inhibition": 56.6
  },
  {
    "MOLECULE": "Cc1ccc(-n2ncc(C#N)c2/N=C/N2CCOCC2)cc1",
    "UNIT LABEL": "%",
    "inhibition": 14.1
  },
  {
    "MOLECULE": "CCCC(O)(c1ccc(Cl)cc1)C(CN1CCOCC1)c1ccccc1 (stereo unspecified)",
    "UNIT LABEL": "%",
    "inhibition": 5.2
  },
  {
    "MOLECULE": "C=CCn1c(O)c(CN2CCN(Cc3ccccc3)CC2)c(C)c(C#N)c1=O",
    "UNIT LABEL": "%",
    "inhibition": 15.6
  },
  {
    "MOLECULE": "COC(=O)N/N=C/c1cc(Cl)c(OCc2ccc(F)cc2)c(OC)c1",
    "UNIT LABEL": "%",
    "inhibition": -6.1
  }
]
